# credit: patent US10221177B2

pIC50 reference
Target: UniProt:O75762
Sequence (O75762 whole entry): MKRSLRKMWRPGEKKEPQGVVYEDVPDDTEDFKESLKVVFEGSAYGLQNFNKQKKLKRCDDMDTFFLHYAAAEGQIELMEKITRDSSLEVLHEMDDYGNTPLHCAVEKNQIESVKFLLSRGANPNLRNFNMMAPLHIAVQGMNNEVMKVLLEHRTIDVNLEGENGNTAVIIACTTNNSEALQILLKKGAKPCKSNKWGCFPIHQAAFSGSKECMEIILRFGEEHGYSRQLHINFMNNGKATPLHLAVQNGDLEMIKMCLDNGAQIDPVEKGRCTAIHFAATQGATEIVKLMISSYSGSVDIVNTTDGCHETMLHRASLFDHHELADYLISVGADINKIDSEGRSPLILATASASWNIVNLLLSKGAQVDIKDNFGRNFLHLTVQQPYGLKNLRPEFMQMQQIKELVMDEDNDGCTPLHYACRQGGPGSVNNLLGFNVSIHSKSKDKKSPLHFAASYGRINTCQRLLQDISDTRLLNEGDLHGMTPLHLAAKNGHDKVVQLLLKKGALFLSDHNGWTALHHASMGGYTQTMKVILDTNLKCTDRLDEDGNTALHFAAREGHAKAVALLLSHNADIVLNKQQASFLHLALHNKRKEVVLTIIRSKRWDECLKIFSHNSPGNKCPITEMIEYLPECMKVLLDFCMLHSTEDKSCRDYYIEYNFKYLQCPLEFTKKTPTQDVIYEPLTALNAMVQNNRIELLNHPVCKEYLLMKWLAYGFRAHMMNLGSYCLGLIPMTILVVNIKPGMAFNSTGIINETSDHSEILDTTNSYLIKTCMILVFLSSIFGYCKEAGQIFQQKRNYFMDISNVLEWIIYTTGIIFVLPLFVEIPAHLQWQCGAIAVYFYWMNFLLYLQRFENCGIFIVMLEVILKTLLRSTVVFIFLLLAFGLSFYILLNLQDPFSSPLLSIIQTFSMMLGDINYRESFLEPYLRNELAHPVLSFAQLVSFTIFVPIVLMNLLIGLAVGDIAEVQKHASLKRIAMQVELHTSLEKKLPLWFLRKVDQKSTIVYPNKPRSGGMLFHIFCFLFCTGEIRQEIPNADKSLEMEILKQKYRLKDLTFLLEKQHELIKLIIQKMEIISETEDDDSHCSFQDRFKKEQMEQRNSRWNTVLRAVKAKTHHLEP
Test: In vitro inhibition of human TRPA1, whole cell patch configuration
Conditions: current activation 10 μM AITC, tested concentrations 320 pM to 3.2 μM, read-out: hTRPA1 IC50
pIC50: −log10 of the molar value.

Compound | pIC50
Cc1cc(Cn2c(=O)c3c(ncn3[C@@H](C)C(=O)Nc3csc(-c4cnc(C)c(Cl)c4)n3)n(C)c2=O)no1 | 8.70
C[C@@H](C(=O)Nc1cncc(-c2ccc(N3CC4C(C3)C4(F)F)nc2)n1)n1cnc2c1c(=O)n(CC#N)c(=O)n2C (stereo partly shown) | 8.70
Cc1cc(Cn2c(=O)c3c(ncn3CC(=O)Nc3cccc(-c4cnc(C)c(F)c4)n3)n(C)c2=O)no1 | 7.77
CC#CCn1c(=O)c2c(ncn2[C@@H](C)C(=O)Nc2ccnc(-c3cnc(N4CC5CC5C4)nc3)n2)n(C)c1=O (stereo partly shown) | 8.22
